- targetEntity: human recombinant OX2 (hOX2) receptor expressed in CHO cells (Homo sapiens, UniProt O43614)
- Sequence (O43614 whole entry): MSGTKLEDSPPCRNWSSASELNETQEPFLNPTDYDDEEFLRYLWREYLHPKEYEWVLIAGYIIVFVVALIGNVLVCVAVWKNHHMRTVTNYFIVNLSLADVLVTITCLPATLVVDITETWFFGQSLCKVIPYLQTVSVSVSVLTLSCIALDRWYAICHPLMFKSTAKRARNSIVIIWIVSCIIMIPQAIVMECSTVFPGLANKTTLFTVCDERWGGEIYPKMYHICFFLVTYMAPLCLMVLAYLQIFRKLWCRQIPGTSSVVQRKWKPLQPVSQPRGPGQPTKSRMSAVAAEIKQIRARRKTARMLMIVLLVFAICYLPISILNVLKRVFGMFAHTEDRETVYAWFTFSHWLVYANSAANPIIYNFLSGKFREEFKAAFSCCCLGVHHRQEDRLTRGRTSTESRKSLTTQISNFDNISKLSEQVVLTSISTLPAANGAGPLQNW
- experimentDescription: IP-1 accumulation assay (IP-One HTRF) in hOX2-CHO cells
- measurementSetup: 60 min at 37° C., 11 points CRC, response as % of maximal OX-A response
measuredParameter: EC50

> print(dat)
                                   molecule  measuredparameter  valuereported
1  Cc1cc(C(CNS(C)(=O)=O)CO[C@H]2CC[C@@H](c3cccc(F)c3)CC2)c(=O)n(C)c1 (single isomer, unassigned; isomer 2) [Example 5d]               EC50    0.1 to 1 µM

Tell me measured EC50 for Cc1cc(C)c(=O)n(C(CNS(=O)(=O)C2CC2)CO[C@H]2CC[C@@H](c3cccc(F)c3)CC2)c1 (stereo partly shown) [Example 2al] please.
< 0.1 µM

Query EC50 for Cc1cc(C(CNS(C)(=O)=O)CO[C@H]2CC[C@@H](c3cccc(F)c3)CC2)c(=O)n(C)c1 (single isomer, unassigned; isomer 1) [Example 5c]
< 0.1 µM

Could you please provide reported EC50 for Cc1cc(C)c(=O)n(C(CNS(C)(=O)=O)COC2CCN(c3ncc(F)cn3)CC2)c1 (single isomer, unassigned; isomer 2) [Example 2ba] ? Thanks!
> 10 µM
